Data provenance is paper PMC12705676.

ASSAY_DETAILS: Hemolysis assay
Assay type: cell-based, human
SETTINGS: human, washed human red blood cells, Hemolysis (%), 200 µg/mL, 30 min, 37 °C
ASSAY_ENDPOINT: hemolysis at 30 min, 200 µg/mL (%)
State just the number; it will be interpreted in %.

COMPOUND	ASSAY_ENDPOINT	READOUT_VALUE
CC1(C)C2CC[C@]1(C)C(=O)/C2=C/c1cc2ccccc2o1 [Compound 9]	hemolysis at 30 min, 200 µg/mL	12.9
CC1(C)C2CC[C@@]1(C)C(=O)/C2=C/c1cccs1 [Compound 6]	hemolysis at 30 min, 200 µg/mL	26.7
CC1(C)C2CC[C@@]1(C)C(=O)/C2=C/c1ccco1 [Compound 4]	hemolysis at 30 min, 200 µg/mL	41.5
CC1(C)C2CC[C@@]1(C)C(=O)/C2=C/c1cc2ccccc2o1 [Compound 10]	hemolysis at 30 min, 200 µg/mL	6.16
CC12CCC(CC1=O)C2(C)C (centres unmarked) [Compound 1, camphor, reference compound]	hemolysis at 30 min, 200 µg/mL	9.67

For the compound CC1(C)C2CC[C@]1(C)C(=O)/C2=C/c1ccsc1 [Compound 11] , give its reported hemolysis at 30 min, 200 µg/mL. 11.2

For the compound CC1(C)C2CC[C@]1(C)C(=O)/C2=C/c1ccco1 [Compound 3] , give its reported hemolysis at 30 min, 200 µg/mL. 28.2

For the compound CC1(C)C2CC[C@]1(C)C(=O)/C2=C/c1ccoc1 [Compound 7] , give its reported hemolysis at 30 min, 200 µg/mL. 3.12

For the compound CC1(C)C2CC[C@@]1(C)C(=O)/C2=C/c1ccoc1 [Compound 8] , give its reported hemolysis at 30 min, 200 µg/mL. 9.74

For the compound CC1(C)C2CC[C@]1(C)C(=O)/C2=C/c1cccs1 [Compound 5] , give its reported hemolysis at 30 min, 200 µg/mL. 7.4

For the compound CC1(C)C2CC[C@@]1(C)C(=O)/C2=C/c1ccsc1 [Compound 12] , give its reported hemolysis at 30 min, 200 µg/mL. 10.2
